B1: Tyrosine-protein kinase Lck, residues 63 to 120; numbered along this chain, P06239 (parent)
chain: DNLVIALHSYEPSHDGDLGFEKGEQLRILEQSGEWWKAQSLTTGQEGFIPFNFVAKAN

- Variants of: B1
- ASSAY EXPLANATION: abundance fitness (aPCA) (normalised: wild type 0, dead -1); higher = more abundant; growth selection in yeast, the domain comes from the species named
- EXPERIMENTAL PARAMETERS: Homo sapiens
QUANTITY KIND: abundance fitness
// return a plain number; no unit text

A selection of reference data follows.
N52A :: -0.202
R27C :: -0.208
E21W :: -0.481
P12T :: -0.529
I49Q :: -0.796

So, H8V ? Its abundance fitness was -0.227
